protocol details: Stability assessed as half life in citrate phosphate buffer at pH 6.8 in presence of dithiothreitol
Format: physicochemical
assay conditions: citrate phosphate buffer with dithiothreitol
parameter measured: half-life (min)

{"smiles text": "CCOC(=O)/C=C/C(=O)N(CC(N)=O)NC(=O)[C@H](C)NC(=O)[C@H](C)NC(=O)OCc1ccccc1", "parameter measured": "half-life", "recorded measurement": 3.7}
{"smiles text": "C[C@H](NC(=O)OCc1ccccc1)C(=O)N[C@@H](C)C(=O)NN(CC(N)=O)C(=O)/C=C/C(=O)N(Cc1ccccc1)Cc1ccccc1", "parameter measured": "half-life", "recorded measurement": 17}
{"smiles text": "C[C@H](NC(=O)OCc1ccccc1)C(=O)N[C@@H](C)C(=O)NN(CC(N)=O)C(=O)/C=C/C(=O)OCc1ccccc1", "parameter measured": "half-life", "recorded measurement": 2.5}
{"smiles text": "C[C@H](NC(=O)OCc1ccccc1)C(=O)N[C@@H](C)C(=O)NN(CC(N)=O)C(=O)/C=C/C(=O)N(C)Cc1ccccc1", "parameter measured": "half-life", "recorded measurement": 20}

---

test system: Lys-gingipain HG66 (Porphyromonas gingivalis) (UniProt P72197)
protocol details: Inhibition of Porphyromonas gingivalis gingipain K assessed as ratio of pseudo-first-order inhibition rate constant to inhibitor concentration
// values below are reported Ratio
parameter measured: Ratio (M⁻¹ s⁻¹)

{"smiles text": "CCOC(=O)/C=C/C(=O)N(CC(N)=O)NC(=O)[C@H](C)NC(=O)[C@H](C)NC(=O)OCc1ccccc1", "test system": "Lys-gingipain HG66 (Porphyromonas gingivalis) (UniProt P72197)", "parameter measured": "Ratio", "unit name": "M⁻¹ s⁻¹", "recorded measurement": 6}
{"smiles text": "C[C@H](NC(=O)OCc1ccccc1)C(=O)N[C@@H](C)C(=O)NN(CC(N)=O)C(=O)/C=C/C(=O)N1CCc2ccccc21", "test system": "Lys-gingipain HG66 (Porphyromonas gingivalis) (UniProt P72197)", "parameter measured": "Ratio", "unit name": "M⁻¹ s⁻¹", "recorded measurement": 1}
{"smiles text": "C[C@H](NC(=O)OCc1ccccc1)C(=O)N[C@@H](C)C(=O)NN(CC(N)=O)C(=O)/C=C/C(=O)N(C)Cc1cccc2ccccc12", "test system": "Lys-gingipain HG66 (Porphyromonas gingivalis) (UniProt P72197)", "parameter measured": "Ratio", "unit name": "M⁻¹ s⁻¹", "recorded measurement": 6}
{"smiles text": "C[C@H](NC(=O)OCc1ccccc1)C(=O)N[C@@H](C)C(=O)NN(CC(N)=O)C(=O)/C=C/C(=O)N(C)Cc1ccccc1", "test system": "Lys-gingipain HG66 (Porphyromonas gingivalis) (UniProt P72197)", "parameter measured": "Ratio", "unit name": "M⁻¹ s⁻¹", "recorded measurement": 1}
{"smiles text": "C[C@H](NC(=O)OCc1ccccc1)C(=O)N[C@@H](C)C(=O)NN(CC(N)=O)C(=O)/C=C/C(=O)N(Cc1ccccc1)Cc1ccccc1", "test system": "Lys-gingipain HG66 (Porphyromonas gingivalis) (UniProt P72197)", "parameter measured": "Ratio", "unit name": "M⁻¹ s⁻¹", "recorded measurement": 2}

---

Organism: Sus scrofa
protocol details: Inhibition of pig AE assessed as ratio of pseudo-first-order inhibition rate constant to inhibitor concentration

{"molecule": "C[C@H](NC(=O)OCc1ccccc1)C(=O)N[C@@H](C)C(=O)NN(CC(N)=O)C(=O)COC(=O)c1ccccc1", "Ratio / M⁻¹ s⁻¹": 13}
{"molecule": "C=CCOC(=O)/C=C/C(CC(N)=O)NC(=O)[C@H](C)NC(=O)[C@H](C)NC(=O)OCc1ccccc1 (some centres undefined)", "Ratio / M⁻¹ s⁻¹": 776}
{"molecule": "C[C@H](NC(=O)OCc1ccccc1)C(=O)N[C@@H](C)C(=O)NN(CC(N)=O)C(=O)CCl", "Ratio / M⁻¹ s⁻¹": 139000}
{"molecule": "CCOC(=O)[C@H]1O[C@@H]1C(=O)N(CC(N)=O)NC(=O)[C@H](C)NC(=O)[C@H](C)NC(=O)OCc1ccccc1", "Ratio / M⁻¹ s⁻¹": 43000}
